The origin of these recorded values is ChEMBL document CHEMBL1138480.

A collection of molecules and their measured log10 of AUC(0-t) at 24 h
test: AUC (0 to 24 hrs) in Beagle dog at 0.10 mg/kg, po by cassette assay; assay type: ADME, organism-based, Canis lupus familiaris; parameters: time < 24 hr, dose 0.1 mg/kg, route oral; settings: plasma, 0.1 mg/kg
Answers are given as log10 of AUC(0-t) at 24 h in ng·h/mL.

// known answers, use as guide
CC(C)Oc1cc(-c2ccc(CCNC[C@H](O)c3ccccc3)cc2)ccc1C(=O)NS(C)(=O)=O.Cl; 2.75
CC(C)Nc1cc(-c2ccc(CCNC[C@H](O)c3ccccc3)cc2)ccc1C(=O)NS(C)(=O)=O.Cl.Cl; 1.98
CS(=O)(=O)NC(=O)c1ccc(-c2ccc(CCNC[C@H](O)c3ccccc3)cc2)cc1Oc1ccccc1.Cl; 2.88
CS(=O)(=O)NC(=O)c1ccc(-c2ccc(CCNC[C@H](O)c3cccnc3)cc2)cc1OC1CCCCC1.Cl.Cl; 2.59
CC(C)Cc1cc(-c2ccc(CCNC[C@H](O)c3cccnc3)cc2)ccc1C(=O)NS(C)(=O)=O.Cl.Cl; 1.08
CCCSc1cc(-c2ccc(CCNC[C@H](O)c3ccccc3)cc2)ccc1C(=O)NS(C)(=O)=O.Cl; 1.96
CS(=O)(=O)NC(=O)c1ccc(-c2ccc(CCNC[C@H](O)c3ccccc3)cc2)cc1C1CCCC1.Cl; 2.32
CC(C)Sc1cc(-c2ccc(CCNC[C@H](O)c3ccccc3)cc2)ccc1C(=O)NS(C)(=O)=O.Cl; 2.64

Would you kindly look at the next entry?
What value of log10 of AUC(0-t) at 24 h has been reported for the following molecule? CS(=O)(=O)NC(=O)c1ccc(-c2ccc(CCNC[C@H](O)c3cccnc3)cc2)cc1C1CCCC1.Cl.Cl 1.13
